# Target or test system: Casein kinase I isoform alpha (Homo sapiens) (UniProt P48729);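 note: values are the mean percent inhibition of CK1a, averaged over measurements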
# Sequence (P48729 2-337 limits assumed): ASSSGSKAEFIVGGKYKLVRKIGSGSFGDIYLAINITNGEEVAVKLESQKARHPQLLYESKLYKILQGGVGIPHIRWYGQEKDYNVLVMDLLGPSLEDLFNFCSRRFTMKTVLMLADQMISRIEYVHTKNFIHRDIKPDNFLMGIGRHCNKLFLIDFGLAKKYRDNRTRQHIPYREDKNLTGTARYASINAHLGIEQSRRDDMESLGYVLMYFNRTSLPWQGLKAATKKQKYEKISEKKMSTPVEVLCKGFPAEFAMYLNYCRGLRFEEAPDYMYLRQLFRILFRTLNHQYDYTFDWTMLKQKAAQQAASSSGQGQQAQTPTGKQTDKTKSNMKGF
# Condition summary: at 0.1 µM
Measured property: inhibition (%)
Numbers only, in %.

The cases that follow already have their inhibition on record.
- COc1cc(Nc2nccc(Nc3ccc4c(C)n[nH]c4c3)n2)cc(OC)c1OC: 0.44
- O=S(=O)(CCNCc1ccc(-c2ccc3ncnc(Nc4ccc(OCc5cccc(F)c5)c(Cl)c4)c3c2)o1)c1ccccc1: 4.43

Batch of 3 molecules: report inhibition for each.
1. Fc1cccc(COc2ccc(Nc3ncnc4sc(-c5ccco5)cc34)cc2Cl)c1
2. c1cc(-c2cnn3nc(N4CCOCC4)ccc23)nc(NC2CC2)n1
3. CC(=O)NCc1cccc(C#Cc2cncnc2Nc2ccc(OCc3cccc(F)c3)c(Cl)c2)c1

OUT:
3.24
5.43
-1.4

###

# Target or test system: Inhibitor of nuclear factor kappa-B kinase subunit epsilon (Homo sapiens) (UniProt Q14164);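 note: reported values are averaged percent inhibition figures against human IKKε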
# Sequence (Q14164 whole entry): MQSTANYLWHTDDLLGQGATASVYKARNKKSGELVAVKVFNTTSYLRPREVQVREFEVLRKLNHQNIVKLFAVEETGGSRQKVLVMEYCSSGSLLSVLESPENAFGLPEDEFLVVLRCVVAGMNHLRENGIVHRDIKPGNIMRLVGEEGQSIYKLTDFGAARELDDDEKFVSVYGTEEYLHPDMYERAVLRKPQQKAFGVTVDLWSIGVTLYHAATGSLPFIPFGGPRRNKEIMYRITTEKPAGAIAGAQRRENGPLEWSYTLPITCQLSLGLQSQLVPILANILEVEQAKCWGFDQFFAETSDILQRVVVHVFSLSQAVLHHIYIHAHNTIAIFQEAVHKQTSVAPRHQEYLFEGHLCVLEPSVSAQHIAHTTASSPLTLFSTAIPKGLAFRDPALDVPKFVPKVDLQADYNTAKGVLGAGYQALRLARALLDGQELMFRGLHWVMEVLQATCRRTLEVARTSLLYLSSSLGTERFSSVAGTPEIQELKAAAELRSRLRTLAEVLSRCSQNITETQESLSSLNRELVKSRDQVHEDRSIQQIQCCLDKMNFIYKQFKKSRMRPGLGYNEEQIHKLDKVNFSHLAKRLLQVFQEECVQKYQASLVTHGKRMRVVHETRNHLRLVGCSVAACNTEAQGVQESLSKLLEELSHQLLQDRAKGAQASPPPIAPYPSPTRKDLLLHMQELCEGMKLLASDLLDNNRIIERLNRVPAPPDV
# Condition summary: at 1 µM
Measured property: inhibition (%)
Numbers only, in %.

• CCN(CC)S(=O)(=O)c1ccc(OC)c(Nc2ncc(-c3ccccc3)o2)c1 = 1.73
• CC(C)COC(=O)c1ccc2c(c1)/C(=C/Nc1ccc(S(N)(=O)=O)cc1)C(=O)N2 = 93.4
• CC(=O)Nc1cccc(C#Cc2cncnc2Nc2ccc(OCc3cccc(F)c3)c(Cl)c2)c1 = -0.15
• CCCN1CCC(c2ccc(Nc3nc(Nc4cc(F)ccc4C(N)=O)c4cc[nH]c4n3)c(OC)c2)CC1 = 5.85

# input for lookup
IN: Recall and state the measured inhibition for CCc1nn2ncccc2c1-c1ccnc(NC2CC2)n1 .
OUT: 6.61

###

# Target or test system: Tyrosine-protein kinase ITK/TSK (Homo sapiens);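 note: mean percent inhibition of ITK from the GSK PKIS screen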
# Condition summary: at 0.1 µM
Measured property: inhibition (%)
Give bare numbers, in %.

The cases that follow already have their inhibition on record.
• COC(=O)c1sc(-n2cnc3cc(OC)c(OC)cc32)cc1OCc1ccccc1C(F)(F)F = 1.1
• O=S(=O)(CCNCc1ccc(-c2ccc3ncnc(Nc4ccc(OCc5cccc(F)c5)c(Cl)c4)c3c2)o1)c1ccccc1 = 0.82

Batch of 6 molecules: report inhibition for each.
1. Nc1nc(-c2cccc(Cl)c2)c(-c2ccc3ncccc3n2)s1
2. CNC(=O)c1cncc(/C=C/c2ccccc2Cl)c1
3. CCn1c(-c2nonc2N)nc2c(C#CC(C)(C)O)ncc(OC3CCNCC3)c21
4. CCn1cc(-c2ccnc3[nH]ccc23)c(-c2cccc(NC(=O)Nc3ccc(OCc4ccccc4)cc3)c2)n1
5. Nc1ncc(-c2cccc(S(N)(=O)=O)c2)c2scc(-c3ccc(F)c(Cl)c3)c12
6. COc1ccc(CNC(=O)c2ccc(-c3cc(-c4nnc(C)o4)ccc3C)cc2)cc1

OUT:
[1.66, 1.6, 1.99, -0.92, 0.53, 2.25]

Batch of 6 molecules: report inhibition for each.
1. COC(=O)Nc1nc2ccc(Oc3ccc(NC(=O)Nc4cccc(Cl)c4)cc3)cc2[nH]1
2. NC(=O)c1sc(-n2cnc3ccc(C(F)(F)F)cc32)cc1OCc1ccccc1Br
3. COc1cc(/C=N/Nc2ncnc3[nH]ncc23)ccc1O
4. COc1cc2c(cc1Nc1nc(Nc3ccsc3C(N)=O)c3cc[nH]c3n1)N(C(=O)CN(C)C)CCC2(C)C
5. COC(=O)Nc1nc2ccc(S(=O)(=O)c3ccc(NC(=O)Nc4cc(C(F)(F)F)ccc4F)cc3)cc2[nH]1
6. CCCN(CCS(C)(=O)=O)Cc1ccc(-c2ccc3ncnc(Nc4ccc(OCc5cccc(F)c5)c(Cl)c4)c3c2)o1

OUT:
1. 0.74
2. 1.03
3. 1.29
4. 1.74
5. 1.08
6. 0.49

Batch of 6 molecules: report inhibition for each.
1. CCn1c(-c2nonc2N)nc2ccccc21
2. NS(=O)(=O)c1ccc(N/N=C2\C(=O)Nc3ccc4ncccc4c32)cc1
3. Nc1nc(-c2ccc(F)cc2)c(-c2ccc3ncccc3n2)s1
4. Clc1ccc(-c2nn3ncccc3c2-c2ccnc(Nc3ccccc3)n2)cc1
5. c1cc(-c2cnn3nc(N4CCOCC4)ccc23)nc(NC2CC2)n1
6. Cc1ccc(O)cc1Nc1ccnc2cc(-c3ccccn3)ccc12

OUT:
[1.11, 2.75, 2.58, 1.38, 1.06, 1.62]

src = ChEMBL document CHEMBL1961873
